B1: LINE1-mini (parent)
chain: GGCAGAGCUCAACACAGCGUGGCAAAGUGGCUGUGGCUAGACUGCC

- Variants of: B1
- ASSAY_INFO: self-cleavage, relative activity (ratio to wild type); higher = more cleavage; in vitro, sequencing; the parent is a self-cleaving ribozyme
EXPERIMENTAL_ENDPOINT: self-cleavage
Please reply with the number alone, leaving off any unit.

Some solved entries appear below for comparison.
- MUTATION_CODE: "A16C U43C"
  EXPERIMENTAL_ENDPOINT: "self-cleavage"
  RECORDED_RESULT: 0.08
- MUTATION_CODE: "G5U A25U"
  EXPERIMENTAL_ENDPOINT: "self-cleavage"
  RECORDED_RESULT: 0.08

Please report the recorded self-cleavage for U32A G33A . 0.08

// query: C10G C18A 0.08

// query: C15G A24U 0.02

// query: C8A G27A 0.17

// query: G30A G36C 0.07

// query: A16C A26U 0.05

// query: U20C A39U 0.37
